System: DU-145 prostate
measuredQuantity: GI50

Some molecules with known GI50 results, for comparison:
COc1cc2cc(c1Cl)N(C)C(=O)C[C@H](OC(=O)[C@H](C)N(C)C(=O)CCS)C[C@]1(C)O[C@H]1[C@H](C)[C@@H]1C[C@@](O)(NC(=O)O1)[C@H](OC)/C=C/C=C(\C)C2    < 5 nM
CCC(=O)O[C@@H]([C@H](C)[C@H]1OC(CC)=C(C)C(=O)[C@@H]1C)[C@@H](C)C(=O)CC    > 100000 nM
CC12OC(CC(O)C1O)n1c3ccccc3c3c4c(c5c6ccccc6n2c5c31)C(=O)N(CCN1CCCC1)C4=O (stereo unspecified)    1060 nM
COc1cc(C(=O)N2CCN(c3ccccn3)CC2)c(N)cc1OCc1ccccc1    > 100000 nM
COc1ccc(O)c2c(=O)c3c(OC)cc4c(c3oc12)[C@@H]1C=CO[C@@H]1O4    3030 nM
CCCCCCCCCCCC[C@@H](O)[C@H]1CC[C@H]([C@H](O)CCCC[C@H](O)CCCCC[C@@H](O)CC2=C[C@H](C)OC2=O)O1    7930 nM
CS(=O)(=O)Nc1ccc(Nc2c3ccccc3nc3cc([N+](=O)[O-])ccc23)cc1    296 nM
CCN(Cc1cccnc1)c1ccc(CO)c(Cl)c1    > 81300 nM

Each of the following entries comes with a recorded value; kindly state GI50 for each.
1. COc1cccc(C(=O)c2sc(Nc3ccc(N4CCN(C(C)C)CC4)cc3)nc2N)c1
2. Nc1ncc(-c2ccc3ncnc(N4CCc5ccc(Cl)cc54)c3c2)cn1
3. CS(=O)(=O)c1ccc(Oc2cc(F)cc(C#N)c2)c2c1[C@H](O)[C@H](F)[C@H]2F

1140 nM
971 nM
> 100000 nM

* * *

Tested on: HT29 colon
assayProtocol: NCI tumour cell line growth inhibition, 48 h
Hi there, I'd appreciate the recorded TGI for every entry that follows.

Sample answers from the record:
Cc1ccc(C(=Nc2ccccc2)N=P(c2ccccc2)(c2ccccc2)c2ccccc2)cc1    > 36.8 µM
Nc1nc[n+](Cc2ccccc2)c2ncn(Cc3ccccc3)c12    > 100 µM
CCOC(=O)C(Cc1c(C=O)[nH]c2ccccc12)(NC(=O)c1ccccc1)C(=O)OCC    37.2 µM
O=C(O)CCc1ccc(-c2ccccc2)[nH]1    > 100 µM
O=C1c2ccccc2C(=O)c2c(Nc3ccc(CCO)cc3)ccc(O)c21    14.9 µM
C=C1C(=O)OC2C1C(=O)C/C(C)=C/CCC1(C)OC21 (configuration not stated)    43.2 µM

Dear colleague, could you send me TGI for each of the items below? Thanks.
1. O=C(O)c1ccc(Cc2ccccc2C(=O)O)cc1
2. CC(=O)N/N=C1/NN(C(C)=O)C2(S1)C(=O)Nc1ccc(C)cc12 (configuration not stated)
3. S=C(S)N1CCOCC1
4. O=C(COc1ccc2c(=O)cc(-c3ccc(Cl)cc3)oc2c1)N1CCN(c2ccccc2)CC1

["> 100 µM", "> 100 µM", "17.1 µM", "> 100 µM"]

Quick request: TGI for each listed item, please.
1. OCc1cn(Cc2ccc(Cl)cc2)c2ccccc12
2. O=C(Nn1cc(F)c(=O)[nH]c1=O)C12CC3CC(CC(C3)C1)C2
3. COc1cc(/C=C2\CCc3ccccc3C2=O)ccc1O
4. COP(=O)(CC(=O)C1OC(C)(C)OC1C(O)COCc1ccccc1)OC (configuration not stated)
5. COc1ccc(N=NC(=O)NC(CC(C)C)C(=O)NC(Cc2ccccc2)C(=O)O)cc1 (configuration not stated)

17.8 µM
37.1 µM
32.7 µM
> 100 µM
> 100 µM

Record TGI for all entries; do not skip any.
1. COc1cc2c3c(n(CCCn4ccnc4)c(=O)c2cc1OC)-c1cc2c(cc1C3=O)OCO2
2. O=C1C(c2ccc([N+](=O)[O-])cc2)=[N+]([O-])c2ccc([N+](=O)[O-])cc21
3. O=C(O)CCn1cnc2c(=S)nc[nH]c21

1: > 100 µM; 2: > 100 µM; 3: > 100 µM

Batch request: TGI per item, same order as input.
1. COc1ccc2c(c1)OCC1Cc3cc4c(cc3OC21)OCO4 (configuration not stated)
2. O=C1Nc2ccc(Cl)cc2C(=O)N2CCC[C@@H]12
3. N#CC12CC3=C(N=C1NC1=C(CCc4ccccc41)C2)c1ccccc1CC3 (configuration not stated)
4. COc1cc2cc(c1Cl)N(C)C(=O)C[C@H](OC(=O)[C@H](C)N(C)C(=O)CCS)C[C@]1(C)O[C@H]1[C@H](C)[C@@H]1C[C@@](O)(NC(=O)O1)[C@H](OC)/C=C/C=C(\C)C2
5. OCCCc1n(Cc2ccc3ccccc3c2)c2ccccc2[n+]1Cc1ccc2ccccc2c1
6. C(=Nc1ccccc1C1SCCCS1)c1ccccc1
7. N#CC1(Cc2ccccc2)CCCCN1C(=O)c1ccccc1 (configuration not stated)
8. CN(C)c1ccc(/C=C2\C[C@H]3[C@@H]4CCc5cc(OCCN6CCCC6)ccc5[C@H]4CC[C@]3(C)[C@H]2O)cc1

1: > 100 µM; 2: > 100 µM; 3: 6.52 µM; 4: > 50 µM; 5: 4.17 µM; 6: > 100 µM; 7: > 100 µM; 8: > 25.7 µM

Data provenance is PubChem BioAssay (NCI).
